System: T47D
Assay: Estrogenic activity in human T47D cells assessed as drug level causing stimulation of cell proliferation equivalent to 100 pM estradiol after 96 hrs by alamar blue assay
Type: functional
Collected Activity values appear next to each entry.
Please respond with the number in µM and leave the unit unwritten.

• O=C1C[C@@H](c2ccc(O)cc2)Oc2cc(O)cc(O)c21 = 1.6
• COc1ccc(-c2coc3cc(O)cc(O)c3c2=O)cc1 = 0.5

# ---- query compound ----
Noted for `COc1ccc(-c2coc3cc(O)cc(O)c3c2=O)c(OC)c1O` : its Activity reads 8.6

###

Test system: T47D
Assay: Estrogenic activity in human T47D cells assessed as drug level causing stimulation of cell proliferation equivalent to 100 pM estradiol after 96 hrs by alamar blue assay
Format: functional
property-label: Activity

- COc1ccc([C@@H]2COc3cc(O)ccc3C2)c(O)c1: 0.2 µM

The record that follows has no Activity shown yet.
// Activity (T47D) for `O=C(/C=C/c1ccc(O)cc1)c1ccc(O)cc1O` = >100 µM

###

# Activity listing for each entry below
Tested on: MCF7
Assay: Estrogenic activity in luciferase transfected human MCF7 cells assessed as drug level causing stimulation of cell proliferation equivalent to 10 pM estradiol by luciferase reporter gene assay
Format: functional

- O=C1C[C@@H](c2ccc(O)cc2)Oc2cc(O)ccc21: 0.01 µM

Sure, the documented Activity for `COc1cc(O)c([C@@H]2COc3cc(O)ccc3C2)cc1OC` is >100 µM

Per the record, `COc1c(O)cc2occ(-c3ccc(O)cc3)c(=O)c2c1O` has Activity of >100 µM

Activity for `COc1ccc([C@@H]2COc3cc(O)ccc3C2)c(O)c1` is >100 µM

Measured Activity, COc1ccc(C2COc3cc(O)ccc3C2=O)c(O)c1 (stereo unspecified) : >100 µM

###

System: MCF7
Assay: Estrogenic activity in luciferase transfected human MCF7 cells assessed as drug level causing stimulation of cell proliferation equivalent to 10 pM estradiol by luciferase reporter gene assay
Type: functional
property-label: Activity

These recorded examples may help you get a feel for the data.
* O=c1c(-c2ccc(O)cc2)coc2cc(O)cc(O)c12 | 0.01 µM
* COc1cc2c(cc1-c1coc3cc(O)cc(O)c3c1=O)OCO2 | 0.01 µM
* O=C1C[C@@H](c2ccccc2)Oc2cc(O)cc(O)c21 | >100 µM
* COc1cc(O)c(-c2coc3cc(O)ccc3c2=O)cc1O | >100 µM
* COc1ccc([C@H]2COc3cc(O)cc(O)c3C2=O)cc1O | 0.6 µM
* COc1ccc(-c2coc3cc(O)cc(O)c3c2=O)cc1O | >100 µM

Looking up `COc1ccc(-c2coc3cc(O)ccc3c2=O)c(OC)c1O` , I found its Activity recorded as 5.9 µM

Per the record, `COC1=CC(=O)C(c2coc3cc(O)ccc3c2=O)=CC1=O` has Activity of 0.7 µM

Record `COc1ccc([C@@H]2COc3cc(O)ccc3C2)c(OC)c1O` , field Activity: 0.9 µM

###

Tested on: T47D
Assay: Estrogenic activity in human T47D cells assessed as drug level causing stimulation of cell proliferation equivalent to 100 pM estradiol after 96 hrs by alamar blue assay
Type: functional
Activity calls are given as the source filed them. The calls are words filed in the database; no cut-off is given here.
property-label: Activity

Consider the worked cases shown below.
- COc1ccc(C2COc3cc(O)ccc3C2=O)c(O)c1 (configuration not stated): 33.7 µM
- COc1cc(O)c(-c2coc3cc(O)ccc3c2=O)cc1O: >100 µM
- COC1=CC(=O)C(c2coc3cc(O)ccc3c2=O)=CC1=O: >100 µM
- COc1c(O)cc2occ(-c3ccc(O)cc3)c(=O)c2c1O: 6.9 µM
- COc1ccc([C@H]2COc3cc(O)ccc3C2=O)c(OC)c1O: 8.9 µM
- COc1cc(-c2coc3cc(O)ccc3c2=O)ccc1O: >100 µM
- COc1cc(O)c([C@@H]2COc3cc(O)ccc3C2)cc1OC: >100 µM
- COc1cc2c(cc1O)C1c3ccc(O)cc3OCC1O2 (racemic): inactive
- COc1cc2c(cc1-c1coc3cc(O)cc(O)c3c1=O)OCO2: >100 µM
- COc1c(C/C=C/c2ccccc2)ccc(O)c1O [HYDROXYOBUSTYRENE]: >100 µM

Reported Activity of `O=C1C[C@@H](c2ccccc2)Oc2cc(O)cc(O)c21` : >100 µM

Measured Activity, `COc1cc(O)ccc1-c1coc2cc(O)cc(O)c2c1=O` : >100 µM

Reported Activity of COc1ccc(C2COc3c(ccc(O)c3O)C2)c(OC)c1O (configuration not stated) : inactive

Activity measured on `COc1ccc([C@@H]2COc3cc(O)ccc3C2)c(OC)c1O` = 6.4 µM

Entry under test: `COc1ccc([C@@]2(O)COc3cc(O)ccc3C2=O)c(O)c1O` . Its Activity was >100 µM

###

Tested on: T47D
Assay: Estrogenic activity in human T47D cells assessed as drug level causing stimulation of cell proliferation equivalent to 100 pM estradiol after 96 hrs by alamar blue assay
Assay type: functional
property-label: Activity

• COc1ccc(-c2coc3cc(O)ccc3c2=O)cc1 [FORMONONETIN] = >100 µM
• COc1ccc(-c2coc3cc(O)ccc3c2=O)c(OC)c1O [KHRINONE E] = >100 µM
• O=C1C[C@@H](c2ccc(O)cc2)Oc2cc(O)ccc21 [LIQUIRTIGENIN] = >100 µM
• COc1ccc(-c2coc3cc(O)ccc3c2=O)c(OC)c1 [2'-METHOXYFORMONETIN] = 1.7 µM
• COc1cc(OC)c(-c2coc3cc(O)cc(O)c3c2=O)cc1OC = >100 µM
• COc1cc([C@H]2Oc3cc(O)ccc3C(=O)[C@@H]2O)ccc1O [ERYCIBENIN D] = >100 µM

// below: Activity requested for another molecule
Record COc1cc(O)ccc1C/C=C/c1ccc(O)cc1 [XENOGNOSIN] / T47D, Activity recorded as >100 µM

###

System: MCF7
Assay: Estrogenic activity in luciferase transfected human MCF7 cells assessed as drug level causing stimulation of cell proliferation equivalent to 10 pM estradiol by luciferase reporter gene assay
Type: functional
property-label: Activity

Below, each entry is followed by its recorded Activity result.
* O=C(/C=C/c1ccc(O)cc1)c1ccc(O)cc1O | 0.01 µM
* COc1cc([C@H]2Oc3cc(O)ccc3C(=O)[C@@H]2O)ccc1O | >100 µM
* COc1ccc([C@@]2(O)COc3cc(O)ccc3C2=O)c(O)c1O | 1.2 µM
* COc1ccc(-c2coc3cc(O)cc(O)c3c2=O)c(OC)c1O | >100 µM

Looking up `COc1cc(O)ccc1-c1coc2cc(O)cc(O)c2c1=O` , I found its Activity recorded as 0.01 µM

###

Catalogue of Activity readings, one per entry.
Test system: T47D
Assay: Estrogenic activity in human T47D cells assessed as drug level causing stimulation of cell proliferation equivalent to 100 pM estradiol after 96 hrs by alamar blue assay
Format: functional

Sample records with Activity:
* COc1ccc([C@H]2COc3cc(O)cc(O)c3C2=O)cc1O | 5.7 µM
* COc1cc(O)c(-c2coc3cc(O)cc(O)c3c2=O)cc1O | >100 µM

Activity for T47D with input `COc1ccc(-c2coc3cc(O)cc(O)c3c2=O)c(OC)c1` equals >100 µM

Fill in: T47D Activity for COc1ccc(C2COc3cc(O)ccc3C2=O)cc1O (configuration not stated) = >100 µM

For `O=c1c(-c2ccc(O)cc2)coc2cc(O)cc(O)c12` on T47D, measured Activity was 0.08 µM

# lookup: `COc1ccc(-c2coc3cc(O)cc(O)c3c2=O)cc1O` on T47D, Activity = >100 µM

###

Tested on: MCF7
Experiment: Estrogenic activity in luciferase transfected human MCF7 cells assessed as drug level causing stimulation of cell proliferation equivalent to 10 pM estradiol by luciferase reporter gene assay
Type: functional
The source made the active and inactive calls. The calls are words filed in the database; no cut-off is given here.
property-label: Activity

A selection of reference data follows.
* COc1cc(-c2coc3cc(O)ccc3c2=O)ccc1O | 1.1 µM
* COc1cc(O)c(-c2coc3cc(O)cc(O)c3c2=O)cc1O | >100 µM
* O=C1C[C@@H](c2ccc(O)cc2)Oc2cc(O)cc(O)c21 | 1.7 µM
* COc1ccc(-c2coc3cc(O)ccc3c2=O)cc1O | 0.6 µM
* O=C1c2c(O)cc(O)cc2O[C@H](c2ccccc2)[C@H]1O | inactive

Entry COc1ccc(C2COc3c(ccc(O)c3O)C2)c(OC)c1O (stereo unspecified) — recorded Activity = inactive

The molecule COc1ccc(C2COc3cc(O)ccc3C2=O)c(OC)c1OC (stereo unspecified) showed Activity equal to >100 µM

Reported Activity of COc1ccc(C2COc3cc(O)ccc3C2=O)cc1O (stereo unspecified) : >100 µM

Field Activity (entry COc1c(C/C=C/c2ccccc2)ccc(O)c1O [HYDROXYOBUSTYRENE] ) reads >100 µM

Reported Activity of `COc1cc(OC)c(-c2coc3cc(O)cc(O)c3c2=O)cc1OC` : 5.4 µM

The molecule listed as `COc1ccc(-c2coc3cc(O)ccc3c2=O)c(OC)c1` shows Activity equal to >100 µM

Given item `COc1ccc(-c2coc3cc(O)cc(O)c3c2=O)cc1` , the value recorded as its Activity is >100 µM

Data origin: ChEMBL document CHEMBL1153749
